subject of test: human AspH (His6-AspH315–758) (Homo sapiens, UniProt Q12797)
Construct: N-Terminally His6-tagged human AspH315–758 (His6-AspH315–758) was produced in Escherichia coli BL21 (DE3) cells; made in house; host or cells: Escherichia coli BL21 (DE3), pET-28a(+) vector
Sequence (Q12797 315-758): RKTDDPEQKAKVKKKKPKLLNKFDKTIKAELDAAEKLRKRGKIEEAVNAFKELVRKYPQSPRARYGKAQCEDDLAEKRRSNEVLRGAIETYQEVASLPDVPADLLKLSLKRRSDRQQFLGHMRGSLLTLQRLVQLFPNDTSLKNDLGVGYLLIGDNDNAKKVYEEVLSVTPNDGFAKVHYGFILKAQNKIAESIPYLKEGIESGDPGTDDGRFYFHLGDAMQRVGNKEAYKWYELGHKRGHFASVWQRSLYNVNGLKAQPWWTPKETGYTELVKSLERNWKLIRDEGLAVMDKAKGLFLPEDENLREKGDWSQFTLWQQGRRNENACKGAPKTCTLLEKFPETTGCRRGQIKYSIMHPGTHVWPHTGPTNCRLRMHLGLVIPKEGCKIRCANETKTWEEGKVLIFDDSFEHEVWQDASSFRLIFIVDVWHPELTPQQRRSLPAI
experimental details: SPE-MS AspH inhibition assay (hFX-CP101-119 substrate hydroxylation)
Assay type: biochemical
particulars: AspH-inhibitor screening, Plate 1-duplicate, substrate conversion
Where a name gives a salt, the structure may show the parent alone.
Entry flag: fulfilled if Plate 1-duplicate (% conversion) reaches 50%; not fulfilled if it does not.

Worked set:
INSERT INTO results (compound, group_label) VALUES
  ('CC(=O)N(O)CCCCCNC(=O)CCC(=O)N(O)CCCCCNC(=O)CCC(=O)N(O)CCCCCN [Deferoxamine mesylate]', 'not fulfilled'),
  ('Nc1ncn([C@H]2C[C@H](O)[C@@H](CO)O2)c(=O)n1', 'fulfilled'),
  ('COc1cc([C@@H]2c3cc4c(cc3[C@@H](O[C@@H]3O[C@@H]5CO[C@@H](C)O[C@H]5[C@H](O)[C@H]3O)[C@H]3COC(=O)[C@H]23)OCO4)cc(OC)c1O [Etoposide]', 'fulfilled'),
  ('COc1cc2nccc(Oc3ccc(NC(=O)Nc4cc(C)on4)c(Cl)c3)c2cc1OC', 'fulfilled');

Hello, I need to know if O=C(O)CCCCC(CCSCc1ccccc1)SCc1ccccc1 (stereo not shown) has measured Plate 1-duplicate (% conversion) not below 50%. Thanks!
fulfilled

Tell me whether Plate 1-duplicate (% conversion) is at least 50% here: `CC[C@H](C)C(=O)O[C@H]1C[C@H](O)C=C2C=C[C@H](C)[C@H](CC[C@@H](O)C[C@@H](O)CC(=O)O)[C@H]21`
not fulfilled

Form field: Plate 1-duplicate (% conversion) at least 50%? Entry: CCC1(c2ccc(N)cc2)CCC(=O)NC1=O (stereo not shown) [Aminoglutethimide]
not fulfilled

Given CC(C)(C)c1nc(-c2cccc(NS(=O)(=O)c3c(F)cccc3F)c2F)c(-c2ccnc(N)n2)s1.CS(=O)(=O)O [Dabrafenib Mesylate] , state whether its Plate 1-duplicate (% conversion) is at least 50%.
not fulfilled

====

subject of test: human AspH (His6-AspH315–758) (Homo sapiens, UniProt Q12797)
Construct: N-Terminally His6-tagged human AspH315–758 (His6-AspH315–758) was produced in Escherichia coli BL21 (DE3) cells; made in house; host or cells: Escherichia coli BL21 (DE3), pET-28a(+) vector
experimental details: SPE-MS AspH inhibition assay (hFX-CP101-119 substrate hydroxylation)
Type: biochemical
particulars: AspH-inhibitor screening, Plate 1-duplicate, substrate conversion
property name: Plate 1-duplicate (% conversion) (%)
Numbers only, in %.

Below are some molecules; for each one, tell me its Plate 1-duplicate (% conversion).
1. Cl.O=C(/C=C/c1cccnc1)NCCCCC1CCN(C(=O)c2ccccc2)CC1 [FK-866 HCl_Daporinad]
2. CN1CCC(COc2cnc(-c3cccc(Cn4nc(-c5cccc(C#N)c5)ccc4=O)c3)nc2)CC1

55.40
50.46

====

subject of test: human AspH (His6-AspH315–758) (Homo sapiens, UniProt Q12797)
Construct: N-Terminally His6-tagged human AspH315–758 (His6-AspH315–758) was produced in Escherichia coli BL21 (DE3) cells; made in house; host or cells: Escherichia coli BL21 (DE3), pET-28a(+) vector
experimental details: SPE-MS AspH inhibition assay (hFX-CP101-119 substrate hydroxylation)
Format: biochemical
particulars: read-out: IC50 at 20 μM Fe(II); 20 μM Fe(II) instead of 2 μM Fe(II)
property name: pIC50
One number for each entry, as −log10 of the molar value.

These solved cases illustrate the format of a correct answer.
INSERT INTO assay_data (compound, val) VALUES
  ('Cc1cc2c(C(C)C)c(O)c(O)c(C=O)c2c(O)c1-c1c(C)cc2c(C(C)C)c(O)c(O)c(C=O)c2c1O [(R)-Gossypol, reference compound]', 6.59),
  ('CCCS(=O)(=O)Nc1ccc(F)c(C(=O)c2c[nH]c3ncc(-c4ccc(Cl)cc4)cc23)c1F [Vemurafenib, reference compound]', 4.98),
  ('CC1(C)CCC(c2ccc(Cl)cc2)=C(CN2CCN(c3ccc(C(=O)NS(=O)(=O)c4ccc(N[C@H](CCN5CCOCC5)CSc5ccccc5)c(S(=O)(=O)C(F)(F)F)c4)cc3)CC2)C1 [Navitoclax, reference compound]', 6.10);

Tell me its pIC50 given COc1c/c(=C2\C=c3ccccc3=N2)[nH]/c1=C\c1[nH]c(C)cc1C.CS(=O)(=O)O [Obatoclax, reference compound] as the entry.
4.92

====

Can you tell me Plate 1 (% inhibition) for the items I'm about to list?
subject of test: human AspH (His6-AspH315–758) (Homo sapiens)
Construct: N-Terminally His6-tagged human AspH315–758 (His6-AspH315–758) was produced in Escherichia coli BL21 (DE3) cells; made in house; host or cells: Escherichia coli BL21 (DE3), pET-28a(+) vector
experimental details: SPE-MS AspH inhibition assay (hFX-CP101-119 substrate hydroxylation)
Type: biochemical
particulars: AspH-inhibitor screening, 384-well Plate 1
Where a name gives a salt, the structure may show the parent alone.
One number for each entry, in %.

Take a look at these entries with their results.
INSERT INTO assay_data (molecule, property_name, val) VALUES
  ('C[C@@H]1C[C@H]2[C@@H]3CCC4=CC(=O)C=C[C@]4(C)[C@@]3(F)[C@@H](O)C[C@]2(C)[C@@]1(O)C(=O)CO', 'Plate 1 (% inhibition)', 0.59),
  ('Cc1ccc(C(=O)Nc2ccc(CN3CCN(C)CC3)c(C(F)(F)F)c2)cc1C#Cc1cnc2cccnn12', 'Plate 1 (% inhibition)', -64.76),
  ('N.N.O=C([O-])C1(C(=O)[O-])CCC1.[Pt+2]', 'Plate 1 (% inhibition)', 3.32),
  ('CC(C)(C)c1nc(-c2cccc(NS(=O)(=O)c3c(F)cccc3F)c2F)c(-c2ccnc(N)n2)s1.CS(=O)(=O)O [Dabrafenib Mesylate]', 'Plate 1 (% inhibition)', 21.60),
  ('CN(C)c1nc(N(C)C)nc(N(C)C)n1', 'Plate 1 (% inhibition)', 3.32);

# per-item lookup of Plate 1 (% inhibition); items listed below
1. Cc1[nH]c2ccccc2c1CCNCc1ccc(/C=C/C(=O)NO)cc1
2. Cn1c(=O)n(-c2ccc(C(C)(C)C#N)cc2)c2c3cc(-c4cnc5ccccc5c4)ccc3ncc21
3. CC(=O)OC[C@H]1O[C@@H]([S-])[C@H](OC(C)=O)[C@@H](OC(C)=O)[C@@H]1OC(C)=O.CCP(CC)CC.[Au+]
4. C[C@]1(c2nc3c(C(N)=O)cccc3[nH]2)CCCN1
5. CN(C)C(=N)NC(=N)N.Cl [Metformin hydrochloride aq]

1: 44.02; 2: 5.14; 3: 60.34; 4: 6.01; 5: 5.05

State recorded Plate 1 (% inhibition) for all listed molecules.
1. Cc1cc(Nc2cc(CN3CCOCC3)c3nc(C)c(Cc4ccc(Cl)cc4F)n3n2)n[nH]1
2. O=C1c2c(O)ccc(O)c2C(=O)c2c(NCCNCCO)ccc(NCCNCCO)c21
3. CCc1c2c(nc3ccc(OC(=O)N4CCC(N5CCCCC5)CC4)cc13)-c1cc3c(c(=O)n1C2)COC(=O)[C@]3(O)CC.Cl [Irinotecan hydrochloride]
4. CCC1=C[C@@H]2CN(C1)Cc1c([nH]c3ccccc13)[C@@](C(=O)OC)(c1cc3c(cc1OC)N(C)[C@H]1[C@@](O)(C(=O)OC)[C@H](OC(C)=O)[C@]4(CC)C=CCN5CC[C@]31[C@@H]54)C2 [Vinorelbine tartrate]

-63.83
-29.89
-1.48
35.58

====

So I've got a bunch of compounds here, and I need their Plate 1-duplicate (% inhibition) values.
subject of test: human AspH (His6-AspH315–758) (Homo sapiens, UniProt Q12797)
Construct: N-Terminally His6-tagged human AspH315–758 (His6-AspH315–758) was produced in Escherichia coli BL21 (DE3) cells; made in house; host or cells: Escherichia coli BL21 (DE3), pET-28a(+) vector
experimental details: SPE-MS AspH inhibition assay (hFX-CP101-119 substrate hydroxylation)
Assay type: biochemical
particulars: AspH-inhibitor screening, Plate 1-duplicate
One number for each entry, in %.

INSERT INTO results (compound, val) VALUES
  ('COc1cc2ncnc(Nc3ccc(F)c(Cl)c3)c2cc1OCCCN1CCOCC1 [Gefitinib]', -37.51),
  ('CC(C)(C)NC(=O)[C@H]1CC[C@H]2[C@@H]3CC[C@H]4NC(=O)C=C[C@]4(C)[C@H]3CC[C@]12C [Finasteride]', 5.03),
  ('Nc1nc2[nH]cc(CCc3ccc(C(=O)N[C@@H](CCC(=O)O)C(=O)O)cc3)c2c(=O)[nH]1 [Pemetrexed]', 10.26);

Moving on to another compound below.
Indicate its recorded Plate 1-duplicate (% inhibition); the compound in question is CC(C)C[C@@H](C(=O)N[C@H](C(=O)OC1CCCC1)c1ccccc1)[C@H](O)C(=O)NO [CHR 2797_Tosedostat]
-16.99
